- System Under Test: Short transient receptor potential channel 4 (Mus musculus) (UniProt Q9QUQ5)
- Sequence (Q9QUQ5 whole entry, looked up): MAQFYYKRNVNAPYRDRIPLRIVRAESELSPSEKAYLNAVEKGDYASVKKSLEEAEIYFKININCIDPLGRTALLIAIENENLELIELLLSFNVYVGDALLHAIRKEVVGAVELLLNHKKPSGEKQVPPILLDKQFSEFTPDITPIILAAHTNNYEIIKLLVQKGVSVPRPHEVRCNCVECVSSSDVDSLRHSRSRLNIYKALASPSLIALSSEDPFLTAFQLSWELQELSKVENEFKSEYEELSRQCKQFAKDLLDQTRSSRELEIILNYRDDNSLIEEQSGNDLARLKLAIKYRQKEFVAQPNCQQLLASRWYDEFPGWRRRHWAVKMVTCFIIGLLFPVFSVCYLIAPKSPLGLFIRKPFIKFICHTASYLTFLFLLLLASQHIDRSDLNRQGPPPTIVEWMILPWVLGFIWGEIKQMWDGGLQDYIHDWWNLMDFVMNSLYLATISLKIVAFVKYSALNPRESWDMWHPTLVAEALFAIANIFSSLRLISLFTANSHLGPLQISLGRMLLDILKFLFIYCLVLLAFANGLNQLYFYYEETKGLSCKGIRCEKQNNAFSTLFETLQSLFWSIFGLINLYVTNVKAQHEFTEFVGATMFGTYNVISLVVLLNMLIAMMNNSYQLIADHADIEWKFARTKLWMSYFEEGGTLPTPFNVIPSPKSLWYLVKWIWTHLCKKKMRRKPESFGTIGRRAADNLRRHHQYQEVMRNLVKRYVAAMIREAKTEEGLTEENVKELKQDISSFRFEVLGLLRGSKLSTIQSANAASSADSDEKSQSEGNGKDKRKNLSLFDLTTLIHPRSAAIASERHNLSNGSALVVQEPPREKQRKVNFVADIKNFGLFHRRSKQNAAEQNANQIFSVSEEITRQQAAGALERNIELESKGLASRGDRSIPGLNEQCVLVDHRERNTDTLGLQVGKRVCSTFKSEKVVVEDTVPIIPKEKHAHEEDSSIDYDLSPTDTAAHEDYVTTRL
- Procedure Text: blockers of DAMGO-evoked TRPC4 calcium flux – cell-based, Fluo4, HEK293 TRPC4beta/mu-opioid, confirmation (AID 2636)
- Condition Notes: at 10 µM
The source made the active and inactive calls.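 Rule for the calls: active = calcium signal cut by more than 3 SD below the full-agonist control yet still positive, in both repeats and the earlier primary screen; inactive = the rest.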
Give one outcome, nothing more. List: 1 (yes) (active), 0 (no) (inactive)

compound=O=C(COC(=O)Cn1cnc2ccccc2c1=O)Nc1ccccc1Sc1ccc(Cl)cc1 category_label="1 (yes)"
compound=Cc1cc(NC(=O)CSCC(=O)Nc2ccc(Cl)c(C(F)(F)F)c2)no1 category_label="1 (yes)"
compound=CCOC(=O)c1cn(Cc2ccccc2)c(C(=O)OC(C)(C)C)c1O category_label="0 (no)"
compound=c1ccc(Nc2ncnc3sc4c(c23)CCC4)cc1 category_label="0 (no)"
compound=O=C(NCCCN1CCN(CCCNC(=O)c2cccc(Cl)c2)CC1)c1cccc(Cl)c1 category_label="0 (no)"
compound=COc1ccc2c(Cl)c(-c3nnc(SCC(=O)c4ccccc4)n3C)sc2c1 category_label="0 (no)"

In: Hi, do you know how CCn1c(NCc2ccco2)nc2ccccc21 came out in this test?
Out: 0 (no)

In: Hi, do you know how CNc1nc(N2CCc3ccccc32)ncc1F came out in this test?
Out: 0 (no)

In: Hi, do you know how Cn1c(=O)n(CCCO)c(=O)c2c1nc1n2CCCN1Cc1ccccc1 came out in this test?
Out: 1 (yes)

In: Hi, do you know how CCN1CCN(c2nc(N)c([N+](=O)[O-])c(Nc3ccc(C)c(C)c3)n2)CC1 came out in this test?
Out: 0 (no)

In: Hi, do you know how c1ccc(CN2CCN(c3nc4ccccc4s3)CC2)cc1 came out in this test?
Out: 0 (no)

In: Hi, do you know how c1ccc(NC(=NCc2ccco2)c2ccccc2)cc1 came out in this test?
Out: 1 (yes)

In: Hi, do you know how COc1cc(NS(=O)(=O)c2ccc3ccccc3c2)c2ncccc2c1 came out in this test?
Out: 1 (yes)

In: Hi, do you know how CC1(C)Cc2nc3oc4c(=O)n(CC(=O)Nc5ccccc5)cnc4c3cc2CO1 came out in this test?
Out: 0 (no)

In: Hi, do you know how COC(=O)c1ccccc1NC(=O)c1cnn2cccnc12 came out in this test?
Out: 0 (no)

In: Hi, do you know how Cc1nn(-c2nc3ccccc3n2Cc2ccccc2)c2c1C(=O)CC(C)(C)C2 came out in this test?
Out: 1 (yes)

In: Hi, do you know how Fc1ccccc1COc1ccc(Br)cc1CNCC1CCCO1 (stereo not drawn) came out in this test?
Out: 1 (yes)

In: Hi, do you know how O=C(Cn1c(NCCCO)nc2ccccc21)c1ccc(Br)cc1 came out in this test?
Out: 1 (yes)

In: Hi, do you know how CCN(CC)CCOCCOc1ccc(Cl)c2ccccc12 came out in this test?
Out: 0 (no)

In: Hi, do you know how Cc1c(N)c(C(C)(C)C)cc(C(C)(C)C)c1[N+](=O)[O-] came out in this test?
Out: 1 (yes)

----------
- System Under Test: Short transient receptor potential channel 4 (Mus musculus)
- Procedure Text: potentiation of DAMGO-evoked TRPC4 calcium signal – cell-based, HEK293 TRPC4/mu-opioid, Fluo-4 calcium, EC20 DAMGO, dose response (AID 434941);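 note: calcium entry triggered by an EC20 dose of DAMGO at the co-expressed mu-opioid receptor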
- Condition Notes: HEK293 TRPC4/mu-opioid cells, Fluo-4 calcium fluorescence; series mostly up to 20 µM
Measured potencies and affinities stand elsewhere. The source made the active and inactive calls.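 The calls were made as follows: active = earlier screen potentiator hit that boosts the TRPC4 ion channel at some dose, with a dose response; inactive = no potentiation, no dose response, or not a prior hit.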
Readout Kind: outcome

Solved entries (count: 5):
compound="COc1ccc(F)cc1C(=O)C1CCCN(Cc2ccc3c(c2)OCCO3)C1 (stereo unspecified)" readout_kind=outcome value_measured=inactive
compound="CC(=O)N1N=C(c2ccc(Br)cc2)OC1(C)CC(=O)Nc1ccccc1 (stereo unspecified)" readout_kind=outcome value_measured=inactive
compound=Cc1cc(Br)c(NC(=O)CN(C)CCOc2ccccc2)c(Br)c1 readout_kind=outcome value_measured=inactive
compound=Nc1cc(N2CCCCC2)c([N+](=O)[O-])cc1Cl readout_kind=outcome value_measured=inactive
compound=CCN(CC)CCCNC(=S)N1CCN(c2nc3ccccc3n2CC)CC1 readout_kind=outcome value_measured=inactive

# context switch: different compound, same outcome
In: Request - read-out outcome | tested on Short transient receptor potential channel 4 (Mus musculus) | compound C/C(=N\N1CCN(C)CC1)c1ccc(Cl)c(Cl)c1
Out: inactive

----------
- Procedure Text: serotonin-gated TRPC4 signal block – cell-based, second counter screen, HEK293 TRPC4/5HT1a, Fluo-4, counter-screen for TRPC4 inhibitor project, confirmation (AID 434978);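 note: serotonin given first at submaximal then at maximal dose after compound preincubation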
- Condition Notes: Fluo-4 calcium flux, at 10 µM, serotonin added to trigger calcium flux
Calls of active or inactive are those of the source.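 The calls were made as follows: active = primary screen active whose calcium signal fell more than 3 SD beyond the full-serotonin control mean in both duplicate plates; inactive = the rest.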
Give one outcome, nothing more. List: active, inactive

compound=CC(=O)Nc1nc2ccc(S(=O)(=O)N3CCCCC3)cc2s1 category_label=inactive
compound=CCOC(=O)c1cn(Cc2ccccc2)c(C(=O)OC(C)(C)C)c1O category_label=inactive

In: Hi, do you know how O=C(OCC(=O)N1CCOCC1)c1cccc(S(=O)(=O)N2CCCc3ccccc32)c1 came out in this test?
Out: inactive

In: Hi, do you know how CC(C)Cn1c(CN2CCN(C)C(CCO)C2)nc2ccccc21 (stereo not drawn) came out in this test?
Out: inactive

In: Hi, do you know how CN1C2C=C(N(CCc3ccccc3)C(=O)c3ccc(Cl)cc3)CC1CC2 (stereo not drawn) came out in this test?
Out: inactive

In: Hi, do you know how COc1ccc(NC(=O)c2cccc(N3C(=O)C4CC=C(C)CC4C3=O)c2)c(OC)c1 (stereo not drawn) came out in this test?
Out: inactive

In: Hi, do you know how CSCC[C@H](NC(=O)N1CCn2c1nc1ccccc12)C(=O)NCc1ccc(C)cc1 came out in this test?
Out: inactive

In: Hi, do you know how CCOC(=O)C1C(=O)C=C(c2ccc(C)cc2)CC1c1cccc([N+](=O)[O-])c1 (stereo not drawn) came out in this test?
Out: inactive

In: Hi, do you know how CCOc1ccc(Nc2nc(Cc3nnc(SCC(=O)c4ccc(C)cc4)o3)cs2)cc1 came out in this test?
Out: inactive

In: Hi, do you know how CCN1CCN(c2ccc(S(=O)(=O)N3CCOCC3)cc2NC(=O)c2ccccc2SC)CC1 came out in this test?
Out: inactive

In: Hi, do you know how CCOC(=O)C1=C(N)OC2=C(C(=O)CC(C)(C)C2)C1c1ccc(CC)s1 (stereo not drawn) came out in this test?
Out: inactive

In: Hi, do you know how COc1ccc(C2=NN(C(=O)c3ccccc3)C(c3ccc(OC)c(OC)c3)C2)c(O)c1 (stereo not drawn) came out in this test?
Out: inactive

In: Hi, do you know how CC(C)c1nc2ccc(Br)cn2c1NC1CCCC1 came out in this test?
Out: inactive

----------
- System: TRPC4 beta (transient receptor potential cation channel C4), mouse
- Procedure Text: TRPC4 cation channel opening, retest – cell-based, Fluo4 calcium, HEK293 TRPC4beta/mu-opioid, duplicates, 10 µM, confirmation (AID 2426)
- Condition Notes: Fluo4 calcium fluorescence, at 10 µM
Calls of active or inactive are those of the source.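 Rule for the calls: active = fluorescence ratio normalized to control raised more than 50% in primary screen plus both repeat runs; inactive = the rest.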
Give one outcome, nothing more. List: true (1) for active, false (0) for inactive

compound="OCC1(Cc2ccccc2)CCCN(Cc2cnn(-c3ccccc3)c2)C1 (configuration not stated)" category_label="false (0)"
compound=COc1ccc(-n2c3c(cc(C(=O)NNc4ccccc4)c2=O)C(=O)CC(C)(C)C3)cc1 category_label="true (1)"
compound=c1ccc(-c2nc(NCc3cccnc3)c3ccccc3n2)cc1 category_label="false (0)"
compound=CCN(CC)CCSc1nnc2c3ccccc3n(Cc3ccccc3)c2n1 category_label="false (0)"
compound=Cc1cc(N2CCCCC2)nc2ccccc12 category_label="false (0)"
compound=Cc1ccc(C(C)C)c(OCCCCN2CCNCC2)c1 category_label="false (0)"
compound=Cc1ccc(-c2nn(-c3cccc(F)c3)cc2CNCc2cccnc2)o1 category_label="true (1)"
compound=CN(C)CCCN(C(=O)CCc1ccccc1)c1nc2ccc(F)cc2s1 category_label="false (0)"
compound=CC(C)Oc1cccc(C(=O)NC(=S)Nc2ccc(N3CCN(C)CC3)cc2)c1 category_label="false (0)"
compound=COC(=O)c1ccc(/C=N/N2CCN(Cc3ccc(C)cc3C)CC2)cc1 category_label="false (0)"

In: Hi, do you know how O/N=C/c1ccccc1Oc1ccc(Cl)cc1 came out in this test?
Out: false (0)

In: Hi, do you know how O=[N+]([O-])c1cc(Cl)cc(/C=N/NC(=S)Nc2ccc(S(=O)(=O)N3CCOCC3)cc2)c1O came out in this test?
Out: false (0)

In: Hi, do you know how CC(C)(C)CC(C)(C)NCC(O)COc1ccc2c(c1)CCC2 (configuration not stated) came out in this test?
Out: false (0)

In: Hi, do you know how Cc1ccc(C)c2nc3sc(C(=O)O)cc3cc12 came out in this test?
Out: false (0)

In: Hi, do you know how CN(CC1CCCN(CCc2cccc(C(F)(F)F)c2)C1)C(=O)c1cc2ccccc2o1 (configuration not stated) came out in this test?
Out: false (0)

In: Hi, do you know how COc1ccc(CCN2C(=S)N(C)C(=O)C2CC(=O)Nc2ccc(F)cc2)cc1 (configuration not stated) came out in this test?
Out: false (0)

In: Hi, do you know how C=CCn1c(=N)n(CC(O)COc2ccccc2OC)c2ccccc21 (configuration not stated) came out in this test?
Out: false (0)

In: Hi, do you know how O=C(Nc1ccc2c(c1)OCO2)c1cnn2cccnc12 came out in this test?
Out: false (0)

In: Hi, do you know how CCOC(=O)c1sc2nc(CC(=O)OC)nc(NCc3ccc(F)cc3)c2c1C came out in this test?
Out: false (0)

In: Hi, do you know how O=C(C[n+]1cccc(CNC(=O)c2ccc(OC(F)F)cc2)c1)Nc1ccc(SC(F)F)cc1 came out in this test?
Out: false (0)

In: Hi, do you know how N#CCCn1cc(CNCc2ccccc2)c(-c2cccc([N+](=O)[O-])c2)n1 came out in this test?
Out: false (0)

In: Hi, do you know how COc1c2c(cc3c1C(CC(O)Cc1ccccc1)N(C)CC3)OCO2 (configuration not stated) came out in this test?
Out: true (1)
